Assay notes: small-molecule microarray binders of probe aLefty2, primary screen, biochemical, biotinylated probe, 635/667 nm fluorescence (AID 1094);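 also: score merges spot fluorescence near 667 nm with spot signal-to-noise ratio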
Condition: higher = more signal
Lab note: anything with composite z-score at or over 0.2 counts as met; the rest go in not met.

| Molecule | Assigned class |
| --- | --- |
| [N-]=[N+]=NCc1ccccc1[C@@H]1OC(c2ccc(OCCCO)cc2)=N[C@]1(Cc1ccccc1N=[N+]=[N-])C(=O)N1CCOCC1 | met |
| CC(C)(C)OC(=O)CC[C@]1(C(=O)O)N=C(c2ccc(OCCCO)cc2)O[C@H]1c1ccccc1N=[N+]=[N-] | met |
| CN1C(=O)C2C=CC(C(O)C3=C[C@H]4C[C@@H](C3)C4(C)C)N(Nc3ccccc3)C2C1=O (some centres undefined) | not met |
| COc1cc(OC)c(C(O)C2C=CC3C(=O)NC(=O)C3N2Nc2ccc(Cl)cc2Cl)cc1Br (centres undefined) | met |
| C[N+](C)(C)CCCC[C@@H]1NC(=O)[C@@H]2C[C@H](C(=O)NCCCCCN)[C@H](c3cccc(OCCO)c3)N2C1=O | met |
| COCCOC(=O)N1C(=O)[C@@]2(c3cc(C#CCCO)ccc31)[C@H](C(=O)N1CCc3cc(OC)c(OC)cc3C1)[C@H]1C(=O)O[C@H](c3ccccc3)[C@H](c3ccccc3)N1[C@@H]2c1ccc(O)cc1 | not met |
| O=C1NC(=O)C2C1C=CC(C(O)c1cccc3ccccc13)N2Nc1ccccn1 (centres undefined) | not met |
| CC(C)(C)C(=O)N[C@@H](c1ccc(Cl)cc1)[C@]1(C)C[C@H]1C1CCCCC1 | met |
| O=C1O[C@@H](c2ccccc2)[C@@H](c2ccccc2)N2[C@@H](c3ccc(OCCO)cc3)[C@]3(C(=O)Nc4ccccc43)[C@@H](C(=O)NC[C@H](O)c3ccccc3)[C@H]12 | not met |
| CC(CO)N1C(=O)[C@@H]2C3C(=O)OCCC/C=C\[C@H]3OC23C=CCN(c2ccc4ccccc4c2)C(=O)[C@@H]13 (some centres undefined) | not met |
| COc1ccc(C#Cc2ccc3c(c2)[C@]2(C(=O)N3)[C@H](c3ccccc3OCCO)N3[C@H](c4ccccc4)[C@H](c4ccccc4)OC(=O)[C@H]3[C@@H]2C(=O)O)cc1 | not met |
| C=CCN1C(=O)[C@@]2(O[C@@H](CCO)[C@H]([Si](C)(C)c3ccc(OC)cc3)[C@H]2C)c2cc(NC(=O)c3ccc(OC)cc3)ccc21 | not met |
| [N-]=[N+]=NCc1ccccc1C[C@@]1(C(=O)NCC(O)CO)N=C(c2ccc(OCCCO)cc2)O[C@@H]1c1ccccc1N=[N+]=[N-] (some centres undefined) | met |
| CN(C)CCCNC(=O)[C@@]1(c2ccc([N+](=O)[O-])cc2)CC(=O)N(C2CCCCC2)[C@@H]1c1ccc(CO)cc1I | not met |

====

Recorded measurements of composite z-score, one per entry
System: Chordin-like protein 2 (CHRDL2)
Assay notes: CHRDL2 small-molecule binders, primary screen, biochemical, small-molecule microarray, 635 nm fluorescence (AID 1126);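 also: printed compound slides probed with Chrdl2 protein at 4 µg/mL for 1 h at 4 C; score merges 667 nm emission intensity with signal to noise over three replicate slides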
Condition: small-molecule microarray binding, fluorescence 635 nm; higher = more signal
Property name: composite z-score

| Molecule | Property name | Numeric value |
| --- | --- | --- |
| C=C(COC)/C(=C/C[C@@H](OC(C)=O)c1ccc(CO)o1)c1cnc2ccccc2c1 | composite z-score | 1.39 |
| CC(C)C(CO)N1C(=O)[C@@H]2[C@H]3C(=O)OCC=C[C@H]3OC23C=CCN(C(C)C)C(=O)[C@@H]13 (some centres not stated) | composite z-score | 0.292 |
| C=CCOC(=O)[C@H]1[C@@H]2C(=O)O[C@@H](c3ccccc3)[C@@H](c3ccccc3)N2[C@@H](c2ccc(OCCOC(=O)[C@H]3C[C@H]4C(=O)N5CCC[C@H]5C(=O)N4[C@H]3c3ccc(O)cc3)cc2)[C@]12C(=O)Nc1ccccc12 | composite z-score | 1.25 |
| [N-]=[N+]=Nc1ccccc1C[C@@]1(C(=O)NCCN2CCOCC2)N=C(c2ccc(OCCCO)cc2)O[C@@H]1c1ccccc1 | composite z-score | -0.11 |
| CC(=O)NCCCC[C@@H]1NC(=O)[C@@H]2C[C@H](C(=O)NCCCCCCNC(=O)CS)[C@H](c3cccc(OCCO)c3)N2C1=O | composite z-score | 0.568 |
| CCCCC(O)C1C=CC2C(=O)N(c3ccccc3)C(=O)C2N1Nc1ccccc1F (configuration not stated) | composite z-score | 0.0354 |
| C[C@@H]1ON(c2cccc(C(=O)OC(C)(C)C)c2)[C@H](c2ccc(Br)cc2)[C@H]1C(=O)N1C(=O)OC[C@H]1Cc1ccccc1 | composite z-score | 0.52 |
| CC(C)(C)OC(=O)CC[C@@]12N=C(c3ccc(OCCCO)cc3)O[C@@H]1c1ccccc1N(CCS(=O)(=O)c1ccccc1)C2=O | composite z-score | 0.623 |
| COCCOC(=O)N1C(=O)[C@@]2(c3cc(C#Cc4ccc(OC)cc4)ccc31)[C@H](c1ccc(O)cc1)N1[C@H](c3ccccc3)[C@H](c3ccccc3)OC(=O)[C@H]1[C@@H]2C(=O)NC[C@H](O)c1ccccc1 | composite z-score | 0.374 |
| CN(C)CCCNC(=O)[C@@]1(c2ccc([N+](=O)[O-])cc2)CC(=O)N(C2CCCCC2)[C@@H]1c1ccc(CO)cc1 | composite z-score | -0.357 |
| COCCOC(=O)N1C(=O)[C@@]2(c3cc(C#CC4(O)CCCCCC4)ccc31)[C@H](c1ccc(O)cc1)N1[C@H](c3ccccc3)[C@H](c3ccccc3)OC(=O)[C@H]1[C@@H]2C(=O)Nc1nc2ccccc2s1 | composite z-score | 0.524 |
| CCCCCC1=C2CNC(CCC)(C(=O)OC)C=C2C(C)C1=O (configuration not stated) | composite z-score | -0.723 |
| COc1cc2c(cc1OC)CN(C(=O)[C@H]1[C@@H]3C(=O)O[C@@H](c4ccccc4)[C@@H](c4ccccc4)N3[C@@H](c3ccc(O)cc3)[C@]13C(=O)Nc1ccc(C#CCNC(N)=O)cc13)CC2 | composite z-score | 0.702 |
| CC(C)C[C@@H]1NC(=O)[C@@H]2C[C@H](C(=O)NCCCCCN)[C@H](c3cccc(OCCO)c3)N2C1=O | composite z-score | 0.0186 |
| COc1ccc(CCN2C(=O)[C@@]3(c4ccc([N+](=O)[O-])cc4)CC(=O)N(C4CCCCC4)[C@@H]3c3ccc(CO)cc32)cc1 | composite z-score | 0.693 |
| CCCC[C@@H]1C[C@H]1[C@@H](NC(=O)c1ccco1)c1ccc(Cl)cc1 | composite z-score | -0.414 |
| C=CCOC(=O)[C@H]1[C@@H]2C(=O)O[C@@H](c3ccccc3)[C@@H](c3ccccc3)N2[C@@H](c2ccc(OCCOC(=O)[C@@H]3C[C@@H]4C(=O)N5CCC[C@H]5C(=O)N4[C@@H]3c3cccc(OCCO)c3)cc2)[C@]12C(=O)Nc1ccccc12 | composite z-score | 0.902 |
| O=C1O[C@H](c2ccccc2)[C@H](c2ccccc2)N2[C@H]1[C@@H](C(=O)O)[C@]1(C(=O)Nc3ccc(C#CCCO)cc31)[C@H]2c1ccc(O)cc1 | composite z-score | -0.823 |
| CC(=O)N1Cc2ccccc2C[C@@]2(COC(c3ccc(OCCCO)cc3)=N2)C1=O | composite z-score | 0.341 |
| COC(=O)C(CC#Cc1ccc2c(c1)[C@]1(C(=O)N2)[C@H](C(=O)O)[C@H]2C(=O)O[C@H](c3ccccc3)[C@H](c3ccccc3)N2[C@@H]1c1ccc(O)cc1)C(=O)OC | composite z-score | -0.872 |
| CN1C(=O)C2C=CC(C(O)c3ccc(-c4ccccc4)s3)N(N(c3ccccc3)c3ccccc3)C2C1=O (configuration not stated) | composite z-score | 0.414 |
| C=C(C)C1C(=C)CN([C@H](CO)c2ccccc2)C1=O (some centres not stated) | composite z-score | 0.117 |
| C=CCNC(=O)[C@@H]1[C@H]2C(=O)O[C@H](c3ccccc3)[C@H](c3ccccc3)N2[C@H](c2ccc(OCCO)cc2)[C@@]12C(=O)Nc1ccc(C#CCCO)cc12 | composite z-score | 1.15 |
| [N-]=[N+]=NCc1ccccc1[C@H]1OC(c2ccc(OCCCO)cc2)=N[C@@]1(Cc1ccccc1)C(=O)NCc1ccccc1 | composite z-score | 0.547 |
| COc1cc2c(cc1O)C(C1CC1)N(Cc1cc3c(cc1Br)OCO3)CC2 (configuration not stated) | composite z-score | -0.14 |
| O=C1NC(=O)C2C1C=CC(C(O)C(c1ccccc1)c1ccccc1)N2Nc1ccc(Cl)cc1Cl (configuration not stated) | composite z-score | -0.483 |
| COC(=O)[C@@]1(Cc2ccccc2)[C@H]2c3cc(C(=O)N4CCCC4)n(Cc4cccc5ccccc45)c3C[C@H]2CN1C(=O)c1ccccc1 | composite z-score | -0.975 |
